Assign Population Mitotic Cells (%) to each entry below.
# System: Fibroblast
# Assay: Multiplex assay against human fibroblast
# Type: toxicity, cell-based
# Condition: 48 h, 1 µM, compound concentration 1 uM, replicate 2
Non-standard residues stand in square brackets, D forms with d. Residues, ends and D or L forms follow the SMILES beside them.
I'd appreciate it if you wrote the number followed by its unit.

Field: example entries. Status: answers known.
COc1cc(C(=O)N2CC[C@@H](O)[C@@H](N)C2)cc2nc(-c3cc4ccccc4n3CC3CC3)n(C)c12.Cl
35%
CN1CCN(c2ccc(Nc3c4ccccc4nc4ccccc34)cc2)CC1.Cl.Cl.O
44%
O=c1ccc2ccc(OCCCCN3CCN(c4cccc5sccc45)CC3)cc2[nH]1
40%

Hello, I would appreciate it if you could give Population Mitotic Cells (%) for each entry below.
1. O=c1nc2[nH]c3ccccc3nc-2c(=O)[nH]1
2. CC(F)(F)CN1CCOc2c(nn(-c3ccccc3Cl)c2-c2ccc(Cl)cc2)C1=O
3. CC(C)C[C@@H]1NC(=O)[C@@H](C(C)C)NC(=O)[C@@H]2CCCN2C(=O)[C@@H](CC(=O)O)NC(=O)[C@@H](Cc2c[nH]c3ccccc23)NC1=O [BQ-123] (cyclo(L[dW][dD]P[dV]))
4. COc1cc(Nc2ncc3c(n2)-c2ccc(Cl)cc2C(c2c(F)cccc2OC)=NC3)ccc1C(=O)O
5. Nc1nc(CC(=O)Nc2ccc(CCNC[C@H](O)c3ccccc3)cc2)cs1

60%
60%
48%
61%
50%

====

Assign Population Pyknosed Nuclei (%) to each entry below.
# Test system: Fibroblast
# Assay: Multiplex assay against human fibroblast
# Assay type: toxicity, cell-based
# Condition: 24 h, 1 µM, compound concentration 1 uM, replicate 1
Numbers only, in %.

Field: example entries. Status: answers known.
O=C(O)CCC/C=C\CC1C(O)CC(O)C1/C=C/C(O)COc1cccc(Cl)c1 (stereo not drawn)
18
CC(F)(F)CN1CCOc2c(nn(-c3ccccc3Cl)c2-c2ccc(Cl)cc2)C1=O
15
O=c1nc2[nH]c3ccccc3nc-2c(=O)[nH]1
12

Hello, I would appreciate it if you could give Population Pyknosed Nuclei (%) for each entry below.
1. O=c1ccc2ccc(OCCCCN3CCN(c4cccc5sccc45)CC3)cc2[nH]1
2. CCn1c(-c2nc3cc(C(=O)N4CCCC(N)C4)ccc3n2C)cc2ccccc21.Cl (stereo not drawn)
3. COc1cc2nc(N3CCN(C(=O)COc4c(OC)cccc4C(C)C)CC3)nc(N)c2cc1OC.Cl.Cl

1. 13
2. 9
3. 17

====

# Test system: HEK-293T
# Assay: Multiplex assay against HEK293T
# Format: toxicity, cell-based
# Condition: human, 24 h, 1 µM, compound concentration 1 uM, replicate 2
Non-standard residues stand in square brackets, D forms with d. Residues, ends and D or L forms follow the SMILES beside them.
Reported Endpoint: Population Tubulin-Different-Phenotype (%)
Numbers only, in %.

Field: example entries. Status: answers known.
CC(C)C[C@@H]1NC(=O)[C@@H](C(C)C)NC(=O)[C@@H]2CCCN2C(=O)[C@@H](CC(=O)O)NC(=O)[C@@H](Cc2c[nH]c3ccccc23)NC1=O [BQ-123] (cyclo(L[dW][dD]P[dV]))
14
O=C(O)CCC/C=C\CC1C(O)CC(O)C1/C=C/C(O)COc1cccc(Cl)c1 (stereo not drawn)
16
CCc1nn2c(C)cc(C)nc2c1Cc1ccc(-c2nnc(C3CCNCC3)o2)cc1
19
CCCCCCNC(=O)Nc1ccc(S(=O)(=O)Nc2ccc(CCNC[C@H](O)COc3ccc(O)cc3)cc2)cc1
22
N[C@](CC1c2ccccc2Oc2ccccc21)(C(=O)O)[C@H]1C[C@@H]1C(=O)O
16
COc1cc(Nc2ncc3c(n2)-c2ccc(Cl)cc2C(c2c(F)cccc2OC)=NC3)ccc1C(=O)O
30
O=c1nc2[nH]c3ccccc3nc-2c(=O)[nH]1
12
COC(c1ccccc1)(c1ccccc1)[C@H](Oc1nc(C)cc(C)n1)C(=O)O
16
COc1ccc2c(c1OCc1ccccc1)C[C@@H](C(=O)O)N(C(=O)C(c1ccccc1)c1ccccc1)C2
14
Cc1cc(=O)n(C)c2cc(N3C(=O)CC[C@H](NS(=O)(=O)CC(C)C)[C@H]3c3ccc(Cl)cc3)ccc12
17

Hello, I would appreciate it if you could give Population Tubulin-Different-Phenotype (%) for each entry below.
1. C[C@H](NC(=O)CNC(=O)c1cccc(Cl)c1)c1ccccc1
2. CN1CCC(C(=O)c2cccc(NC(=O)c3c(F)cc(F)cc3F)n2)CC1

9
17

Hello, I would appreciate it if you could give Population Tubulin-Different-Phenotype (%) for each entry below.
1. COc1ccc2[nH]c(I)c(CCNC(C)=O)c2c1
2. O=C(Nc1cc(-c2ccccc2)nn1-c1ccccc1F)c1ccc([N+](=O)[O-])cc1
3. CN1CCN2c3ccccc3Cc3ccccc3C2C1.Cl (stereo not drawn) [MIANSERIN HYDROCHLORIDE]
4. COc1cc2nc(N3CCN(C(=O)COc4c(OC)cccc4C(C)C)CC3)nc(N)c2cc1OC.Cl.Cl
5. COc1c(Nc2ccc(S(C)(=O)=O)nc2C)ncnc1OC1CCN(C(=O)OC(C)C)CC1

1. 14
2. 16
3. 16
4. 16
5. 15

====

# Test system: Fibroblast
# Assay: Multiplex assay against human fibroblast
# Type: toxicity, cell-based
# Condition: 12 h, 10 µM, compound concentration 10 uM, replicate 2
Reported Endpoint: Population Healthy Nuclei (%)
Numbers only, in %.

Field: example entries. Status: answers known.
CN(C)C/C=C/C(=O)Nc1ccc(C(=O)N2CCCC(Nc3ncc(Cl)c(-c4c[nH]c5ccccc45)n3)C2)cc1 (stereo not drawn)
41
COc1cc(C(=O)N2CC[C@@H](O)[C@@H](N)C2)cc2nc(-c3cc4ccccc4n3CC3CC3)n(C)c12.Cl
44
CCCCCCNC(=O)Nc1ccc(S(=O)(=O)Nc2ccc(CCNC[C@H](O)COc3ccc(O)cc3)cc2)cc1
48
Cc1ccc(OCC(O)C(C)NC(C)C)c2c1CCC2.Cl (stereo not drawn)
50
Cn1cc(C(=O)OCC2CCN(CCNS(C)(=O)=O)CC2)c2ccccc21
51

Hello, I would appreciate it if you could give Population Healthy Nuclei (%) for each entry below.
1. COc1cc2nc(N3CCN(C(=O)c4ccco4)CC3)nc(N)c2cc1OC.Cl [PRAZOSIN HYDROCHLORIDE]
2. COC(c1ccccc1)(c1ccccc1)[C@H](Oc1nc(C)cc(C)n1)C(=O)O
3. CCCCC[C@H](O)/C=C/[C@H]1[C@H](O)CC(=O)[C@@H]1CCCCCCC(=O)O

1: 42; 2: 25; 3: 43

====

# Tested on: U2OS
# Assay: Multiplex assay against U2OS
# Assay type: toxicity, cell-based
# Condition: human, 24 h, 1 µM, compound concentration 1 uM, replicate 2
Assign Population Normal (%) to each entry below.
Answers are plain numbers, in %.

CN1CCN(c2ccc(Nc3c4ccccc4nc4ccccc34)cc2)CC1.Cl.Cl.O
95
Cc1ccc(OCC(O)C(C)NC(C)C)c2c1CCC2.Cl (configuration not stated)
98
COc1cc2nc(N3CCN(C(=O)c4ccco4)CC3)nc(N)c2cc1OC.Cl [PRAZOSIN HYDROCHLORIDE]
100
C=CCN1C[C@H](C(=O)N(CCCN(C)C)C(=O)NCC)C[C@@H]2c3cccc4[nH]cc(c34)C[C@H]21 [CABERGOLINE]
98
COCCCN1CCC(NC(=O)c2cc(Cl)c(N)c3c2OCC3)CC1 [PRUCALOPRIDE]
98
CC(C)(O)C(=O)N1CCN(c2ccc(C(F)(F)F)c(C3=C(c4c[nH]c5ccccc45)C(=O)NC3=O)c2)CC1
100
COc1ccc2c(c1OCc1ccccc1)C[C@@H](C(=O)O)N(C(=O)C(c1ccccc1)c1ccccc1)C2 [OLODANRIGAN]
97
CN(C)C(=O)Cn1cc(-c2ccc(-c3nnc4ccccn34)cc2)cn1
100

Hello, I would appreciate it if you could give Population Normal (%) for each entry below.
1. C[C@@H]1CC(=O)Nc2cccc(-c3ccc4c(c3)c(-c3cnn(C)c3)nn4C)c2N1
2. COc1cc(C(=O)N2CC[C@@H](O)[C@@H](N)C2)cc2nc(-c3cc4ccccc4n3CC3CC3)n(C)c12.Cl
3. CCn1c(-c2nc3cc(C(=O)N4CCCC(N)C4)ccc3n2C)cc2ccccc21.Cl (configuration not stated)
4. Cc1cc(=O)n(C)c2cc(N3C(=O)CC[C@H](NS(=O)(=O)CC(C)C)[C@H]3c3ccc(Cl)cc3)ccc12
5. CSc1nc(NC2CCCC2)c([N+](=O)[O-])c(NC2CCCC2)n1 [GS-39783]
6. O=C(O)CCC/C=C\CC1C(O)CC(O)C1/C=C/C(O)COc1cccc(Cl)c1 (configuration not stated) [CLOPROSTENOL]
7. CCCCCCNC(=O)Nc1ccc(S(=O)(=O)Nc2ccc(CCNC[C@H](O)COc3ccc(O)cc3)cc2)cc1 [L-755507]
8. S=C(NCCCc1c[nH]cn1)NCCCN(Cc1ccc(Cl)c(Cl)c1)c1ccc(Br)cn1

1. 98
2. 97
3. 96
4. 98
5. 98
6. 100
7. 97
8. 98

Log: U2OS, molecule COc1cc2nc(N3CCN(C(=O)COc4c(OC)cccc4C(C)C)CC3)nc(N)c2cc1OC.Cl.Cl , Population Normal (%) = 99
